- assayed target: Peroxisome proliferator-activated receptor gamma (Homo sapiens)
- experiment description: Agonist activity at PPARgamma (unknown origin)
pEC50: −log10 of the molar value.
measured quantity: pEC50

1 = O=C(O)[C@H](Oc1cccc(C(F)(F)F)c1)c1ccc(Cl)cc1 [MBX-102 ACID FORM]
2 = O=C(O)[C@@H](Oc1cccc(C(F)(F)F)c1)c1ccc(Cl)cc1
Ask: Of 1 and 2 , whose reported pEC50 is numerically smaller? Please reply using the label of the selected record.
Result: 1

* * *

- assayed target: Peroxisome proliferator-activated receptor gamma (Homo sapiens, UniProt P37231)
- Sequence (P37231 whole entry): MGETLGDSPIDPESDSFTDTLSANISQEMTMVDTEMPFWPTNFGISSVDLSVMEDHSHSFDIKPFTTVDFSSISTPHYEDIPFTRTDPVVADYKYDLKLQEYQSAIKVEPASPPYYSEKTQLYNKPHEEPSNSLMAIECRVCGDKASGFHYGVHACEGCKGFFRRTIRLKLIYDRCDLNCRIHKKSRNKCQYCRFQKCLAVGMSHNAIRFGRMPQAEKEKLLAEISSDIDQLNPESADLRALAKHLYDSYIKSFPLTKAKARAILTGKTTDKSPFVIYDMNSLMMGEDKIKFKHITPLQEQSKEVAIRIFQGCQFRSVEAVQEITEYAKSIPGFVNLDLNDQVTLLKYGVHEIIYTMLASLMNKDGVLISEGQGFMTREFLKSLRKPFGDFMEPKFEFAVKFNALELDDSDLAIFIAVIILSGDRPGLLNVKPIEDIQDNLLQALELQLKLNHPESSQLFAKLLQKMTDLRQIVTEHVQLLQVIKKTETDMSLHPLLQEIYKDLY
- experiment description: Partial agonist activity at PPARgamma (unknown origin)
measured quantity: EC50 (µM)
Report the figure in µM without appending any unit label.

Record summary for O=C(O)[C@@H](Oc1cccc(C(F)(F)F)c1)c1ccc(Cl)cc1 : reported EC50 = 11

Data origin, for the record: ChEMBL document CHEMBL4396886
